Every entry's value here was drawn from paper PMC8139662.

A549^+ACE2 cells: recorded CC50 for assorted compounds
MEASURED_METRIC: CC50

COMPOUND	TARGET_DESC	MEASURED_METRIC	EXPERIMENTAL_RESULT
CC(C)C[C@H](NC(=O)OCc1ccccc1)C(=O)N[C@@H](CC1CCNC1=O)C(O)S(=O)(=O)[O-].[Na+] (some centres unmarked) [GC-376, reference compound]	A549^+ACE2 cells	CC50	> 10 µM
COc1cccc2[nH]c(C(=O)N[C@@H](CC(C)C)C(=O)N[C@@H](C[C@@H]3CCNC3=O)C(=O)CO)cc12 [PF-00835231]	A549^+ACE2 cells	CC50	> 10 µM

---

PROCEDURE_SUMMARY: in vitro
MEASUREMENT_CONTEXT: human
MEASURED_METRIC: CC50

COMPOUND	MEASURED_METRIC	EXPERIMENTAL_RESULT
CCC(CC)COC(=O)[C@H](C)N[P@](=O)(OC[C@H]1O[C@@](C#N)(c2ccc3c(N)ncnn23)[C@H](O)[C@@H]1O)Oc1ccccc1 [remdesivir, reference compound]	CC50	> 10 µM
